Source of measurements: ChEMBL document CHEMBL1135935

Known IC50 of a selection of molecules
Target: Albumin (Homo sapiens, UniProt P02768)
Sequence (P02768 whole entry): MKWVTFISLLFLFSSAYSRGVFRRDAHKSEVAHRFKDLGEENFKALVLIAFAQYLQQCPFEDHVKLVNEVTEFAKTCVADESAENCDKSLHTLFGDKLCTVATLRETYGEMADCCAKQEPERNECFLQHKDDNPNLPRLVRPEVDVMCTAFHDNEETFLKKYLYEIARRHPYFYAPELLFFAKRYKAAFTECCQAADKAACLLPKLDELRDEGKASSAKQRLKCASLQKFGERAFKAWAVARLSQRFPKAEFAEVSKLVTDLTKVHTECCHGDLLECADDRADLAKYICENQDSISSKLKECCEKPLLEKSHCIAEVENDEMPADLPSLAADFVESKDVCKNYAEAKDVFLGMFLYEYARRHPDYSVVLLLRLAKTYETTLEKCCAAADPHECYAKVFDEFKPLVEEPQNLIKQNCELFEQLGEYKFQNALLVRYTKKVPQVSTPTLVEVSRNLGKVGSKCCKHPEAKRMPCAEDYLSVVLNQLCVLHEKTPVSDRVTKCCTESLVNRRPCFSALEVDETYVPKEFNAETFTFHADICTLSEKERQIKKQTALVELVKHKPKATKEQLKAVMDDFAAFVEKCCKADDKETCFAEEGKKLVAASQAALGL
Assay: Inhibitory concentration bound to tryptophan containing region of Serum albumin in fluorescence quenching
Reply with just the number (in µM).

// IC50 value for FC(F)(F)C(Cl)Br (stereo unspecified) : 2900

// IC50 value for FC(Cl)C(F)(F)C1(F)N=N1 (stereo unspecified) : 2200

* * *

Test: Dissociation constant for a single binding site
Kd under 5000 µM gets Fulfilled, anything at or over 5000 µM gets Not fulfilled.

Consider the following illustrative entries.
[[record]]
molecule = "FC(F)(F)C1(Br)N=N1"
category_label = "Not fulfilled"

[[record]]
molecule = "FC(F)(F)C(Cl)Br (stereo not given) [HALOTHANE]"
category_label = "Fulfilled"

[[record]]
molecule = "FC(F)(C(Cl)Br)C1N=N1 (stereo not given)"
category_label = "Fulfilled"

[[record]]
molecule = "FC(Cl)C(F)(F)C1(Br)N=N1 (stereo not given)"
category_label = "Fulfilled"


Is Kd strictly under 5000 µM for the entry FC(Cl)C(F)(F)C1(F)N=N1 (stereo not given) ?
Fulfilled
